Values compiled from ChEMBL document CHEMBL3232904.

- testName: Drug degradation in human plasma at 25 degC after 12 hrs
- Assay type: ADME, cell-free
- runParameters: read-out: Drug degradation
measuredEndpoint: metabolised at 12 h (%)
Give bare numbers, in %.

Value of measured metabolised at 12 h for the entry O=C(O)C[C@H]1CC[C@H](c2ccc(-c3ccc4c(ccn4C(=O)Nc4ccccc4)c3)cc2)CC1 : 40

Next molecule, please.
Quick note, metabolised at 12 h for O=C(O)C[C@H]1CC[C@H](c2ccc(-c3ccc4c(c3)CCN4C(=O)Nc3ccccc3)cc2)CC1 landed at 20

* * *

- targetUnderTest: CYP1A1 (Homo sapiens)
- Sequence (P04798 whole entry): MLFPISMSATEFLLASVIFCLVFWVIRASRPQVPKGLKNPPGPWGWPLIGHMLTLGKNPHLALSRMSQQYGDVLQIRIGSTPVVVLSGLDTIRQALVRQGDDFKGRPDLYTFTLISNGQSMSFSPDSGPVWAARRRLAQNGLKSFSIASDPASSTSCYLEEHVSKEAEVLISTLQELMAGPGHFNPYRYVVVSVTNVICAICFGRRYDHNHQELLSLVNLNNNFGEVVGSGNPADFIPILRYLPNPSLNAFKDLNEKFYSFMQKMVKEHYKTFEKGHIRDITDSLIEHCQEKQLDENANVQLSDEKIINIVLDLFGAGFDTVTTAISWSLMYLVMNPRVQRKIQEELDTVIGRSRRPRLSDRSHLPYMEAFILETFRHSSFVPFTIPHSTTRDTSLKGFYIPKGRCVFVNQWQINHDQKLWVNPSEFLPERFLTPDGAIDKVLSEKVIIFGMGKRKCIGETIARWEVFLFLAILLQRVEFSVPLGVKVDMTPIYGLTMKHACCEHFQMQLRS
- testName: Induction of CYP1A1 (unknown origin) at 30 uM
- Assay type: ADME
- runParameters: read-out: FC
measuredEndpoint: fold induction at 30 µM
One number for each entry.

fold induction at 30 µM for O=C(O)C[C@H]1CC[C@H](c2ccc(-c3ccc4c(c3)OCCN4C(=O)Nc3ccccc3)cc2)CC1 is 10

* * *

- testName: AUC in rat at 10 mg/kg, po
- Assay type: ADME, organism-based
- Parameters: dose 10 mg/kg, route oral
- runParameters: plasma
Could you please report measured AUC for the items listed next?
Please append the unit to your numeric answer.

The molecule listed as Cc1cc(C(=O)NCCCCCc2ccccc2)c2ccc(-c3ccc([C@H]4CC[C@H](CC(=O)O)CC4)cc3)cc2n1 has a reported AUC of 10 µM·h

Go through the list and state AUC for each entry.
1. O=C(O)C[C@H]1CC[C@H](c2ccc(-c3ccc4c(C(=O)Nc5ccccc5)c[nH]c4c3)cc2)CC1
2. O=C(O)C[C@H]1CC[C@H](c2ccc(-c3ccc4c(c3)CCN4C(=O)Nc3ccccc3)cc2)CC1
3. CC(C)c1cccc(NC(=O)c2ccnc3cc(-c4ccc([C@H]5CC[C@H](CC(=O)O)CC5)cc4)ccc23)c1
4. Cc1cc(C(=O)Nc2ccccc2)c2ccc(-c3ccc(OCC(C)(C)C(=O)O)nc3)cc2n1
5. Cc1cc(C(=O)Nc2ccccc2)c2ccc(-c3ccc([C@H]4CC[C@H](CC(=O)O)CC4)cc3)cc2n1
6. O=C(O)C[C@H]1CC[C@H](c2ccc(-c3ccc4c(c3)OCCN4C(=O)Nc3ccccc3)cc2)CC1

Output:
1.3 µM·h
17 µM·h
0.03 µM·h
34 µM·h
79 µM·h
58 µM·h

For the 2 molecules below, give their AUC values.
1. O=C(O)C[C@H]1CC[C@H](c2ccc(-c3ccc4c(c3)CCCN4C(=O)Nc3ccccc3)cc2)CC1
2. O=C(O)C[C@H]1CC[C@H](c2ccc(-c3ccc4c(C(=O)Nc5ccccc5)ccnc4c3)cc2)CC1

Output:
1: 79 µM·h; 2: 5 µM·h

* * *

- testName: Solubility of the compound at pH 7
- Type: physicochemical
- runParameters: buffer
measuredEndpoint: solubility

Measured solubility of O=C(O)C[C@H]1CC[C@H](c2ccc(-c3ccc4c(C(=O)Nc5ccccc5)cccc4c3)cc2)CC1 : 10 µM

* * *

Target protein (sequence): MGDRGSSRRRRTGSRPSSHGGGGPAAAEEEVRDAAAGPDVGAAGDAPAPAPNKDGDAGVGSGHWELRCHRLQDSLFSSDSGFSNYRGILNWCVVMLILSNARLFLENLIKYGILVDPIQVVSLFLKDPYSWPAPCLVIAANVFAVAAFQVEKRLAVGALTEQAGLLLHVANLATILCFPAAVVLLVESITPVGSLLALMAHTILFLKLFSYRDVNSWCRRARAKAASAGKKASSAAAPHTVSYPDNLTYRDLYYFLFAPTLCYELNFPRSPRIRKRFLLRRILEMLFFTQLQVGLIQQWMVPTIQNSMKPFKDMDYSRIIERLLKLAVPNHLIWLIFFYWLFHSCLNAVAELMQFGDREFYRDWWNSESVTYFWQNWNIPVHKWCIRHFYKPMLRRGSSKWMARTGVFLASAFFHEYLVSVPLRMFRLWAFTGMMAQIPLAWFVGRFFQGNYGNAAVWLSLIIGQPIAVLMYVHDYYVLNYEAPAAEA
measuredEndpoint: IC50

Data point: O=C(O)C[C@H]1CC[C@H](c2ccc(-c3ccc4c(ccn4C(=O)Nc4ccccc4)c3)cc2)CC1 ; IC50 = 37 nM

* * *

- testName: Oral bioavailability in rat at 10 mg/kg
- Type: ADME, organism-based
- runParameters: in vivo
measuredEndpoint: bioavailability

bioavailability measured on O=C(O)C[C@H]1CC[C@H](c2ccc(-c3ccc4c(c3)CCN4C(=O)Nc3ccccc3)cc2)CC1 = > 90%

* * *

Hi there, I'd appreciate the recorded half-life for every entry that follows.
- testName: Half life in rat at 10 mg/kg, po
- Format: ADME, organism-based
- Parameters: dose 10 mg/kg, route oral
- runParameters: in vivo
Numbers only, in h.

For every item in the list below, what is its measured half-life?
1. O=C(O)C[C@H]1CC[C@H](c2ccc(-c3ccc4c(c3)CCN4C(=O)Nc3ccccc3)cc2)CC1
2. O=C(O)C[C@H]1CC[C@H](c2ccc(-c3ccc4c(c3)OCCN4C(=O)Nc3ccccc3)cc2)CC1

Output:
1. 3
2. 4

* * *

Provide the reported hepatocyte CLint of each item.
- testName: Clearance in human hepatocytes assessed per million cells
- Format: ADME, cell-based, Hepatocyte
- runParameters: read-out: CLH
Give bare numbers, in µL/min/1e6 cells.

Data point: O=C(O)C[C@H]1CC[C@H](c2ccc(-c3ccc4c(c3)CCN4C(=O)Nc3ccccc3)cc2)CC1 ; hepatocyte CLint = 3

Okay, next one:
Documented hepatocyte CLint of O=C(O)C[C@H]1CC[C@H](c2ccc(-c3ccc4c(c3)OCCN4C(=O)Nc3ccccc3)cc2)CC1 : 11

* * *

- targetUnderTest: Diacylglycerol O-acyltransferase 1 (Mus musculus)
- Sequence (Q9Z2A7 whole entry): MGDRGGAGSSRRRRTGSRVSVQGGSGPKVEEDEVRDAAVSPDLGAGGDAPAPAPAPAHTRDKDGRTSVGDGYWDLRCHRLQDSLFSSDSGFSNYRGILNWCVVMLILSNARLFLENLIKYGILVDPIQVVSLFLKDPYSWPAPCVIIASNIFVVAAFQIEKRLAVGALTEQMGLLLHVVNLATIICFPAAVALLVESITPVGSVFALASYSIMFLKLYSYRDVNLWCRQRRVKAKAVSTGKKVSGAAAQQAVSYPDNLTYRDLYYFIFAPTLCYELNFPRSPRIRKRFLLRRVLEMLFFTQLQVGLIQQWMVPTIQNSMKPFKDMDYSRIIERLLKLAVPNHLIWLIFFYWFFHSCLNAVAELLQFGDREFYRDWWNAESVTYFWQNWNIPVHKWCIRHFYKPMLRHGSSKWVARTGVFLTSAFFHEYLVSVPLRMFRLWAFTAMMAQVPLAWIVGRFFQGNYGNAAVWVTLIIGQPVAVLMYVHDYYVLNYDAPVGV
- testName: Inhibition of mouse DGAT1
For each record, write down the corresponding pIC50.
One number for each entry, as −log10 of the molar value.

Solved cases below.
Here O=C(O)C[C@H]1CC[C@H](c2ccc(-c3ccc4c(C(=O)Nc5ccccc5)ccnc4c3)cc2)CC1 was tested on Diacylglycerol O-acyltransferase 1 (Mus musculus), and its pIC50 came to 7.64

The compound O=C(O)C[C@H]1CC[C@H](c2ccc(-c3ccc4cc(C(=O)Nc5ccccc5)[nH]c4c3)cc2)CC1 , when measured on Diacylglycerol O-acyltransferase 1 (Mus musculus), yielded pIC50 of 5.96

I looked up O=C(O)C[C@H]1CC[C@H](c2ccc(-c3ccc4oc(Nc5ccccc5)nc4c3)cc2)CC1 and its pIC50 for Diacylglycerol O-acyltransferase 1 (Mus musculus) was 5.42

Param item: Cc1cc(C(=O)NCCCCCc2ccccc2)c2ccc(-c3ccc([C@H]4CC[C@H](CC(=O)O)CC4)cc3)cc2n1 ; param system: Diacylglycerol O-acyltransferase 1 (Mus musculus); output pIC50: 8.85

Case O=C(O)C[C@H]1CC[C@H](c2ccc(-c3ccc4c(C(=O)Nc5ccccc5)c[nH]c4c3)cc2)CC1 , Diacylglycerol O-acyltransferase 1 (Mus musculus), pIC50 recorded as 6.55

Record O=C(O)C[C@H]1CC[C@H](c2ccc(-c3ccc4c(c3)NCCN4C(=O)Nc3ccccc3)cc2)CC1 ; system Diacylglycerol O-acyltransferase 1 (Mus musculus); pIC50 = 5.32

Lab note: each compound below needs its pIC50 filled in.
1. O=C(O)C[C@H]1CC[C@H](c2ccc(-c3ccc4c(c3)CCN4C(=O)Nc3ccccc3)cc2)CC1
2. O=C(O)C[C@H]1CC[C@H](c2ccc(-c3ccc4c(c3)CCCN4C(=O)Nc3ccccc3)cc2)CC1
3. Cc1cc(C(=O)Nc2ccccc2)c2ccc(-c3ccc(OCC(C)(C)C(=O)O)nc3)cc2n1

Output:
7.16
7.08
7.16
